# Assay name: Plasma pharmacokinetics of TSU-68 in phase I patients
# Assay type: in vivo, human
# Stated conditions: human, plasma, oral, 200 mg/m2, T max, t.i.d. after meal, 84th dose, 200 mg/m^2, n=6, mean ± SD
Attribute measured: Tmax (h)
Hi! Could you send only the number? It should be in h, unit omitted.

Given the molecule Cc1[nH]c(/C=C2\C(=O)Nc3ccccc32)c(C)c1CCC(=O)O , what is its reported Tmax?
2

* * *

# Assay name: Plasma pharmacokinetics of TSU-68 in phase I patients
# Format: in vivo, human
# Stated conditions: human, plasma, oral, 200 mg/m2, T 1/2, b.i.d. after meal, 1st dose, 200 mg/m^2, n=3, mean ± SD
Attribute measured: half-life (h)
Hi! Could you send only the number? It should be in h, unit omitted.

Given the compound Cc1[nH]c(/C=C2\C(=O)Nc3ccccc32)c(C)c1CCC(=O)O , what is its reported half-life?
2.37

* * *

# Assay name: Plasma pharmacokinetics of TSU-68 in phase I patients
# Format: in vivo, human
# Stated conditions: human, plasma, oral, 200 mg/m2, AUC0–t, t.i.d. after meal, 2nd dose, 200 mg/m^2, n=6, mean ± SD
Attribute measured: AUC(0-t) (ng·h/mL)
Hi! Could you send only the number? It should be in ng·h/mL, unit omitted.

Given the compound Cc1[nH]c(/C=C2\C(=O)Nc3ccccc32)c(C)c1CCC(=O)O [TSU-68] , what is its reported AUC(0-t)?
31500

* * *

# Assay name: Plasma pharmacokinetics of TSU-68 in phase I patients
# Assay type: in vivo, human
# Stated conditions: human, plasma, oral, 400 mg/m2, C max, b.i.d. after meal, 1st dose, 400 mg/m^2, n=6, mean ± SD
Attribute measured: Cmax (ng/mL)
Hi! Could you send only the number? It should be in ng/mL, unit omitted.

Given the compound Cc1[nH]c(/C=C2\C(=O)Nc3ccccc32)c(C)c1CCC(=O)O , what is its reported Cmax?
17100

* * *

# Assay name: Plasma pharmacokinetics of TSU-68 in phase I patients
# Format: in vivo, human
# Stated conditions: human, plasma, oral, 400 mg/m^2 t.i.d., AUC Day 28, Pt 20, Colon ca., t.i.d. 400 mg/m^2 (1,800 mg/day)
Attribute measured: AUC (ng·h/mL)
Hi! Could you send only the number? It should be in ng·h/mL, unit omitted.

Given the molecule Cc1[nH]c(/C=C2\C(=O)Nc3ccccc32)c(C)c1CCC(=O)O [TSU-68] , what is its reported AUC?
46800

* * *

# Assay name: Plasma pharmacokinetics of TSU-68 in phase I patients
# Format: in vivo, human
# Stated conditions: human, plasma, oral, 400 mg/m2, T max, b.i.d. after meal, 56th dose, 400 mg/m^2, N = 4, mean ± SD
Attribute measured: Tmax
Answer shape: numeric part, then the unit.

Given the compound Cc1[nH]c(/C=C2\C(=O)Nc3ccccc32)c(C)c1CCC(=O)O , what is its reported Tmax?
2.38 h

* * *

# Assay name: Plasma pharmacokinetics of TSU-68 in phase I patients
# Assay type: in vivo, human
# Stated conditions: human, plasma, oral, 400 mg/m2, AUC0–t, t.i.d. after meal, 2nd dose, 400 mg/m^2, n=6, mean ± SD
Attribute measured: AUC(0-t) (ng·h/mL)
Hi! Could you send only the number? It should be in ng·h/mL, unit omitted.

Given the compound Cc1[nH]c(/C=C2\C(=O)Nc3ccccc32)c(C)c1CCC(=O)O [TSU-68] , what is its reported AUC(0-t)?
42000

The reported numbers originate from paper PMC3082038.
